details: in isopropanol, 298.15 K
PROPERTY_NAME: solubility (mole fraction)
Answers are plain numbers.

Query block: Give the measured solubility (mole fraction) of Nc1nc(N)c2nc(-c3ccccc3)c(N)nc2n1 .
Result block: 7.42e-06

###

conditions: in DMSO, 298.15 K
PROPERTY_NAME: solubility (mole fraction)

Query block: Give the measured solubility (mole fraction) of Nc1nc(N)c2nc(-c3ccccc3)c(N)nc2n1 .
Result block: 0.00281

###

settings: in methanol, 298.15 K
PROPERTY_NAME: solubility (mole fraction)
Give bare numbers.

Query block: Give the measured solubility (mole fraction) of Nc1nc(N)c2nc(-c3ccccc3)c(N)nc2n1 .
Result block: 8.42e-05

###

conditions: in n-butanol, 293.15 K
PROPERTY_NAME: solubility (mole fraction)
Give bare numbers.

Query block: Give the measured solubility (mole fraction) of Nc1nc(N)c2nc(-c3ccccc3)c(N)nc2n1 .
Result block: 8.08e-06

###

settings: in isobutanol, 323.15 K
PROPERTY_NAME: solubility (mole fraction)

Query block: Give the measured solubility (mole fraction) of Nc1nc(N)c2nc(-c3ccccc3)c(N)nc2n1 .
Result block: 5.43e-05

###

conditions: in DMSO, 313.15 K
PROPERTY_NAME: solubility (mole fraction)
Numbers only.

Query block: Give the measured solubility (mole fraction) of Nc1nc(N)c2nc(-c3ccccc3)c(N)nc2n1 .
Result block: 0.0068

###

conditions: in acetonitrile, 298.15 K
PROPERTY_NAME: solubility (mole fraction)

Query block: Give the measured solubility (mole fraction) of Nc1nc(N)c2nc(-c3ccccc3)c(N)nc2n1 .
Result block: 7.99e-06

###

details: in isopropanol, 318.15 K
PROPERTY_NAME: solubility (mole fraction)
Answers are plain numbers.

Query block: Give the measured solubility (mole fraction) of Nc1nc(N)c2nc(-c3ccccc3)c(N)nc2n1 .
Result block: 2.93e-05

###

settings: in 2-methoxyethanol, 308.15 K
PROPERTY_NAME: solubility (mole fraction)
Give bare numbers.

Query block: Give the measured solubility (mole fraction) of Nc1nc(N)c2nc(-c3ccccc3)c(N)nc2n1 .
Result block: 0.00792

###

conditions: in isobutanol, 313.15 K
PROPERTY_NAME: solubility (mole fraction)
One number for each entry.

Query block: Give the measured solubility (mole fraction) of Nc1nc(N)c2nc(-c3ccccc3)c(N)nc2n1 .
Result block: 2.55e-05

###

conditions: in n-butanol, 283.15 K
PROPERTY_NAME: solubility (mole fraction)
One number for each entry.

Query block: Give the measured solubility (mole fraction) of Nc1nc(N)c2nc(-c3ccccc3)c(N)nc2n1 .
Result block: 3.32e-06

###

conditions: in 2-methoxyethanol, 303.15 K
PROPERTY_NAME: solubility (mole fraction)

Query block: Give the measured solubility (mole fraction) of Nc1nc(N)c2nc(-c3ccccc3)c(N)nc2n1 .
Result block: 0.00605

###

conditions: in acetonitrile, 283.15 K
PROPERTY_NAME: solubility (mole fraction)
One number for each entry.

Query block: Give the measured solubility (mole fraction) of Nc1nc(N)c2nc(-c3ccccc3)c(N)nc2n1 .
Result block: 2.52e-06

###

details: in isobutanol, 298.15 K
PROPERTY_NAME: solubility (mole fraction)

Query block: Give the measured solubility (mole fraction) of Nc1nc(N)c2nc(-c3ccccc3)c(N)nc2n1 .
Result block: 8.74e-06

###

conditions: in n-methylformamide, 288.15 K
PROPERTY_NAME: solubility (mole fraction)

Query block: Give the measured solubility (mole fraction) of Nc1nc(N)c2nc(-c3ccccc3)c(N)nc2n1 .
Result block: 0.000726

###

settings: in isobutanol, 308.15 K
PROPERTY_NAME: solubility (mole fraction)
Answers are plain numbers.

Query block: Give the measured solubility (mole fraction) of Nc1nc(N)c2nc(-c3ccccc3)c(N)nc2n1 .
Result block: 1.71e-05

###

settings: in 1,2-dichloroethane, 323.15 K
PROPERTY_NAME: solubility (mole fraction)

Query block: Give the measured solubility (mole fraction) of Nc1nc(N)c2nc(-c3ccccc3)c(N)nc2n1 .
Result block: 3.55e-05

###

settings: in DMSO, 303.15 K
PROPERTY_NAME: solubility (mole fraction)
Give bare numbers.

Query block: Give the measured solubility (mole fraction) of Nc1nc(N)c2nc(-c3ccccc3)c(N)nc2n1 .
Result block: 0.00381

###

conditions: in n-butanol, 308.15 K
PROPERTY_NAME: solubility (mole fraction)
Give bare numbers.

Query block: Give the measured solubility (mole fraction) of Nc1nc(N)c2nc(-c3ccccc3)c(N)nc2n1 .
Result block: 2.11e-05

###

conditions: in water, 303.15 K
PROPERTY_NAME: solubility (mole fraction)
One number for each entry.

Query block: Give the measured solubility (mole fraction) of Nc1nc(N)c2nc(-c3ccccc3)c(N)nc2n1 .
Result block: 2.16e-06

###

details: in ethyl acetate, 298.15 K
PROPERTY_NAME: solubility (mole fraction)

Query block: Give the measured solubility (mole fraction) of Nc1nc(N)c2nc(-c3ccccc3)c(N)nc2n1 .
Result block: 9.44e-06

###

details: in water, 288.15 K
PROPERTY_NAME: solubility (mole fraction)

Query block: Give the measured solubility (mole fraction) of Nc1nc(N)c2nc(-c3ccccc3)c(N)nc2n1 .
Result block: 1.29e-06

###

conditions: in ethyl acetate, 283.15 K
PROPERTY_NAME: solubility (mole fraction)

Query block: Give the measured solubility (mole fraction) of Nc1nc(N)c2nc(-c3ccccc3)c(N)nc2n1 .
Result block: 2.91e-06

###

conditions: in n-methylformamide, 308.15 K
PROPERTY_NAME: solubility (mole fraction)
Numbers only.

Query block: Give the measured solubility (mole fraction) of Nc1nc(N)c2nc(-c3ccccc3)c(N)nc2n1 .
Result block: 0.00264

###

details: in n-methylformamide, 313.15 K
PROPERTY_NAME: solubility (mole fraction)
One number for each entry.

Query block: Give the measured solubility (mole fraction) of Nc1nc(N)c2nc(-c3ccccc3)c(N)nc2n1 .
Result block: 0.00353

###

details: in n-methylformamide, 318.15 K
PROPERTY_NAME: solubility (mole fraction)
Answers are plain numbers.

Query block: Give the measured solubility (mole fraction) of Nc1nc(N)c2nc(-c3ccccc3)c(N)nc2n1 .
Result block: 0.00461

###

details: in methanol, 308.15 K
PROPERTY_NAME: solubility (mole fraction)

Query block: Give the measured solubility (mole fraction) of Nc1nc(N)c2nc(-c3ccccc3)c(N)nc2n1 .
Result block: 0.000169

###

conditions: in n-methylformamide, 283.15 K
PROPERTY_NAME: solubility (mole fraction)
Numbers only.

Query block: Give the measured solubility (mole fraction) of Nc1nc(N)c2nc(-c3ccccc3)c(N)nc2n1 .
Result block: 0.000547

###

conditions: in isopropanol, 293.15 K
PROPERTY_NAME: solubility (mole fraction)
One number for each entry.

Query block: Give the measured solubility (mole fraction) of Nc1nc(N)c2nc(-c3ccccc3)c(N)nc2n1 .
Result block: 4.92e-06

###

details: in water, 323.15 K
PROPERTY_NAME: solubility (mole fraction)
One number for each entry.

Query block: Give the measured solubility (mole fraction) of Nc1nc(N)c2nc(-c3ccccc3)c(N)nc2n1 .
Result block: 4.61e-06

###

conditions: in methanol, 293.15 K
PROPERTY_NAME: solubility (mole fraction)
Give bare numbers.

Query block: Give the measured solubility (mole fraction) of Nc1nc(N)c2nc(-c3ccccc3)c(N)nc2n1 .
Result block: 6.36e-05

###

details: in n-butanol, 298.15 K
PROPERTY_NAME: solubility (mole fraction)
Answers are plain numbers.

Query block: Give the measured solubility (mole fraction) of Nc1nc(N)c2nc(-c3ccccc3)c(N)nc2n1 .
Result block: 1.15e-05

###

conditions: in methanol, 323.15 K
PROPERTY_NAME: solubility (mole fraction)
Numbers only.

Query block: Give the measured solubility (mole fraction) of Nc1nc(N)c2nc(-c3ccccc3)c(N)nc2n1 .
Result block: 0.000449

###

details: in acetonitrile, 288.15 K
PROPERTY_NAME: solubility (mole fraction)

Query block: Give the measured solubility (mole fraction) of Nc1nc(N)c2nc(-c3ccccc3)c(N)nc2n1 .
Result block: 3.43e-06

###

details: in acetonitrile, 313.15 K
PROPERTY_NAME: solubility (mole fraction)

Query block: Give the measured solubility (mole fraction) of Nc1nc(N)c2nc(-c3ccccc3)c(N)nc2n1 .
Result block: 2.43e-05

###

settings: in 2-methoxyethanol, 283.15 K
PROPERTY_NAME: solubility (mole fraction)

Query block: Give the measured solubility (mole fraction) of Nc1nc(N)c2nc(-c3ccccc3)c(N)nc2n1 .
Result block: 0.00188

###

conditions: in acetonitrile, 293.15 K
PROPERTY_NAME: solubility (mole fraction)
Give bare numbers.

Query block: Give the measured solubility (mole fraction) of Nc1nc(N)c2nc(-c3ccccc3)c(N)nc2n1 .
Result block: 5.17e-06
